Cited source for all entries: PubChem BioAssay (NCI)

System: NCI/ADR-RES ovarian
Test: NCI tumour cell line growth inhibition, 48 h
Entries and their GI50

# molecule, GI50
rows = [
    ("CSc1ccc(C2=Nn3c(nnc3-c3ccc(F)c(Cl)c3)SC2)cc1", "5.17 µM"),
    ("Cc1ccc(C(=O)Nc2ccc(CN3CCN(C)CC3)c(C(F)(F)F)c2)cc1C#Cc1cnc(N)c2ccc(F)cc12", "0.436 µM"),
    ("CNC(=O)Nc1ccc(-c2nc(N3CCOCC3)nc3c2cnn3C2CCOCC2)cc1", "0.511 µM"),
    ("COc1cc2cc(Oc3ccc(NC(=O)c4cccc(C(F)(F)F)c4)cc3)c(C)nc2cc1OC", "4.02 µM"),
    ("Cn1cc(C2=C(c3cn(C)c4ccc(N)cc34)C(=O)NC2=O)c2ccccc21", "10.3 µM"),
    ("O=C(O)c1cc[c]([Hg][S]c2ncnc3nc[nH]c23)cc1", "3.75 µM"),
    ("COc1ccc(OC)c(-c2cc(-c3ccccc3)nn2-c2ccc(S(=O)(=O)NC(C)=O)cc2)c1", "3.38 µM"),
    ("CCN(CCCCCCCCCCN1CC(=O)N(CCCCCCCCCCN(CC)Cc2ccccc2OC)CC1=O)Cc1ccccc1OC", "1.64 µM"),
    ("NS(=O)(=O)c1ccc(N2Cc3cc(Cl)ccc3OC3=C2C(=O)N(CC2CCCCC2)C3=O)cc1", "1.74 µM"),
    ("COc1ccc(-c2cc(-c3ccc(Cl)cc3)c(C#N)c(=O)n2CCCCC(=O)Nc2ccccc2N)cc1", "4.09 µM"),
    ("CCOC(=O)c1c(NC(=O)c2ccc(C(C)C)cc2)sc2c(CN(C)C)c(O)ccc12", "1.89 µM"),
    ("S=C(N/N=C/c1cc(Cl)cc(Cl)c1)NC12CC3CC(CC(C3)C1)C2", "7.2 µM"),
    ("Cc1cc(N(CCNc2ccnc3cc(Cl)ccc23)Cc2ccc3c(c2)OCO3)nc(N2CCN(C)CC2)n1", "3.26 µM"),
    ("CC1(C)N=C(N)N=C(N)N1c1ccc(CCc2ccccc2)c(Cl)c1", "37 µM"),
    ("Nc1cc(N)c2nc(-c3ccccc3)c(Oc3ccc(F)cc3)nc2c1", "18.2 µM"),
    ("COC(=O)C1=C(OC(=O)c2ccc(Cl)cc2)C(C(=O)OC)[C@@]2(O)[C@@H](C(=O)OC)C(c3ccccc3C(F)(F)F)C[C@@H]1[C@@H]2C(=O)OC (stereo partly specified)", "3.11 µM"),
]
